Molecular target: HLA-A*31:01
Experiment: IEDB peptide-MHC binding, purified MHC/competitive/fluorescence; filed as Kd, often an IC50 or EC50 that approximates it; bounds were set here for any values at or beyond the usual limits of such assays
Conditions: source organism: Fowlpox virus
measure.name: Kd (nM)
One number for each entry, in nM.

For `RAFKYPFIK` the sequence record lists Kd as 60

====

Target: HLA-B*39:01
Experiment: IEDB peptide-MHC binding, purified MHC/competitive/fluorescence; filed as Kd, often an IC50 or EC50 that approximates it; bounds were set here for any values at or beyond the usual limits of such assays
Settings: source organism: Vibrio parahaemolyticus RIMD 2210633
pKd: −log10 of the molar value.
measure.name: pKd

For `GTVPTDNPF` the sequence record lists pKd as ≤ 4.70

====

Target: HLA-A*69:01
Test: IEDB peptide-MHC binding, purified MHC/direct/fluorescence; filed as Kd, often an IC50 or EC50 that approximates it; bounds were set here for any values at or beyond the usual limits of such assays
Details: source organism: Camelpox virus M-96
measure.name: pKd
Numbers only, as −log10 of the molar value.

For `LLSKNTFYL` the sequence record lists pKd as 6.27

====

Molecular target: HLA-A*02:19
Test: IEDB peptide-MHC binding, purified MHC/direct/fluorescence; filed as Kd, often an IC50 or EC50 that approximates it; bounds were set here for any values at or beyond the usual limits of such assays
Details: source organism: Orthohantavirus andesense
pKd: −log10 of the molar value.
measure.name: pKd

VFTSRIQVI; ≤ 4.70

// switching to the query sequence
Given the sequence `IQNALEKAL` and test system HLA-A*02:19, the measured pKd is ≤ 4.70

====

Target: HLA-A*33:01
Assay: IEDB peptide-MHC binding, purified MHC/competitive/radioactivity; filed as Kd, often an IC50 or EC50 that approximates it; bounds were set here for any values at or beyond the usual limits of such assays
Settings: source organism: Dengue virus 4 Philippines/H241/1956
Give Kd for every item shown.
Give bare numbers, in µM.

A selection of reference data follows.
DSALTLHWFR; 0.00327
VLAFITFLR; 0.0704
HYDQENPYR; 7.87
TMPLVMAWR; 0.00643

// switching to the query sequence
For `TIIGRRLQR` the sequence record lists Kd as 0.416

====

Molecular target: HLA-A*69:01
Test: IEDB peptide-MHC binding, purified MHC/direct/fluorescence; filed as Kd, often an IC50 or EC50 that approximates it; bounds were set here for any values at or beyond the usual limits of such assays
Settings: source organism: Bacillus anthracis str. 'Ames Ancestor'
pKd: −log10 of the molar value.
measure.name: pKd

For `TKAGMAQYL` the sequence record lists pKd as ≤ 4.70

====

Biological target: HLA-A*68:02
Assay: IEDB peptide-MHC binding, purified MHC/direct/fluorescence; filed as Kd, often an IC50 or EC50 that approximates it; bounds were set here for any values at or beyond the usual limits of such assays
Settings: source organism: Zaire ebolavirus
measure.name: Kd

Batch request: Kd for each of the following sequences.
1. EAEKQLQQY
2. FLILPQAKK

≥ 20 µM
≥ 20 µM

====

Give pKd for every item shown.
Target: HLA-A*30:01
Assay: IEDB peptide-MHC binding, purified MHC/competitive/radioactivity; filed as Kd, often an IC50 or EC50 that approximates it; bounds were set here for any values at or beyond the usual limits of such assays
Conditions: source organism: Dengue virus 1 Brazil/97-11/1997
One number for each entry, as −log10 of the molar value.

TFKMRPMFA; 7.64
RARVSQGAG; 6.71
MVLLTMKEK; 5.56

For `KLRPRWLDA` the sequence record lists pKd as 7.65

Source listed as the Immune Epitope Database (IEDB).
